Recorded growth, one value per entry.
test system: HCT-116 colon; assay: NCI-60 one-dose screen, 48 h (100 = growth as untreated, 0 = no growth, -100 = all killed); details: 10 µM unless noted
The panel holds about 83,000 compounds, 20% with a hit somewhere; the sample as a whole holds those more often.
The response must be a number in % with no trailing unit.

Solved entries (count: 5):
[[record]]
molecule = "COc1cc2oc(-c3cccc(N)c3)cc(=O)c2c(OC)c1OC"
recorded_number = 111

[[record]]
molecule = "COc1cc(/C=C2\\C(=O)Nc3cc(Cl)ccc32)ccc1OCc1ccc(F)cc1"
recorded_number = 92.9

[[record]]
molecule = "Cc1ccc(C(=O)NN2C(=O)/C(=C/C=C/c3ccco3)SC2=S)cc1"
recorded_number = 98.2

[[record]]
molecule = "N#Cc1cn(Cc2ccc(Cl)cc2Cl)c(C(=O)c2ccc(Br)cc2)c1N"
recorded_number = 101

[[record]]
molecule = "COc1cc2nc(Cl)nc(Nc3cccc(C4=Nc5c(N)nc(N)nc5NC(c5ccc6c(c5)OCO6)C4)c3)c2cc1OC (stereo not drawn)"
recorded_number = 55.3


Query: For the molecule `NC(N)=Nc1ccc(Oc2cccc(Nc3ccc(Cl)c(C(F)(F)F)c3)c2)cc1` , what growth is on record?
Result: 27.5

Query: Please give the measured growth for this molecule: C[C@@H]1C[C@H]2C(=O)O[C@@H](C)C(NC(=O)[C@H](Cc3cc(F)cc(F)c3)NC(=O)Nc3ccc(C4CC4)cc3F)C(=O)N3CCC[C@H]3C(=O)N3CCCC[C@H]3C(=O)N[C@@H](CO)C(=O)N2C1 (stereo partly drawn)
Result: 10.6

Query: Look at this molecule and give its reported growth. `CC(C)(C)c1ccc(-c2nnc(-c3nc4ccccc4nc3Cl)o2)cc1`
Result: 14.2

Query: Tell me the measured growth of `NS(=O)(=O)c1ccc(Nc2nc(Nc3ccccc3)nc3nnc(SCC(=O)NC4CCCCC4)n23)cc1` , please.
Result: 99.8

Query: Dear colleague, I am looking for the recorded growth of the following molecule: `CC1(COc2ccc3ncc(C#Cc4cncc(C(=O)Nc5cccc(C(F)(F)F)c5)c4)n3n2)COC1`
Result: 56.4
